The measured values listed here are drawn from PubChem BioAssay (NCATS).

assaySystem: Cytochrome P450 3A7 (Homo sapiens)
procedureText: Cytochrome P450 family 3 subfamily A member 7 (CYP3A7) small molecule antagonists: luciferase biochemical qHTS assay (AID 1963596); further: nearly all actives have a fitted effect of over 40% in size
testParameters: P450-Glo CYP3A7 enzyme luminescence, 1 h; series mostly up to 57.4 µM
From the text: National Center for Advancing Translational Sciences [NCATS] Assay Overview: Cytochrome P450 (CYP) enzymes are membrane-bound hemeproteins that play a key role in metabolism of drugs and xenobiotics. […] The luciferin products formed are detected with a luciferin detection reagent, and the amount of light produced is proportional to CYP activity. […]
Inconclusive results are not listed. The source made the active and inactive calls. The call rests on the fitted dose curve; in most records, active means well fitted inhibition curve with a large enough effect; inconclusive means small, poorly fitted or top-dose-only effect; inactive means no such curve, though single readings can be large or run the other way.
API: response.call in active, inactive

Here's what some known entries look like.
compound: COc1cc(Nc2c(C#N)cnc3cc(OCCCN4CCN(C)CC4)c(OC)cc23)c(Cl)cc1Cl
assaySystem: Cytochrome P450 3A7 (Homo sapiens)
discreteLabel: active
//
compound: Cn1c(=O)c2c(nc(CN3CCN(C(=O)C4CC4)CC3)n2Cc2cccc(F)c2)n(C)c1=O
assaySystem: Cytochrome P450 3A7 (Homo sapiens)
discreteLabel: inactive
//
compound: O=C(Nc1cccnn1)N1CCN(c2nccc(-c3ccc(F)c(F)c3)n2)CC1
assaySystem: Cytochrome P450 3A7 (Homo sapiens)
discreteLabel: inactive
//
compound: N#C/C(=C/c1ccccc1Cl)c1nc2ccccc2c(=O)[nH]1
assaySystem: Cytochrome P450 3A7 (Homo sapiens)
discreteLabel: inactive
//
compound: CCOc1cc(C(=O)Nc2ccc(Cl)c(-c3nc4ccccc4[nH]3)c2)cc(OCC)c1OCC
assaySystem: Cytochrome P450 3A7 (Homo sapiens)
discreteLabel: inactive
//
compound: C[C@H](NCCc1ccc(O)cc1)[C@H](O)c1ccc(O)cc1
assaySystem: Cytochrome P450 3A7 (Homo sapiens)
discreteLabel: inactive
//
compound: O=C(Oc1ccccc1)c1cccc(C(=O)Oc2ccccc2)c1
assaySystem: Cytochrome P450 3A7 (Homo sapiens)
discreteLabel: inactive
//
compound: O=C(O)C1CCC1
assaySystem: Cytochrome P450 3A7 (Homo sapiens)
discreteLabel: inactive
//
compound: C[C@H](Nc1ncnc2nc[nH]c12)c1cc2cccc(Cl)c2c(=O)n1-c1ccccc1
assaySystem: Cytochrome P450 3A7 (Homo sapiens)
discreteLabel: inactive
//
compound: NC(=O)NS(=O)(=O)c1ccc(Cl)cc1
assaySystem: Cytochrome P450 3A7 (Homo sapiens)
discreteLabel: inactive

Which outcome was assigned to C[C@@H](O)[C@H]1C(=O)N2C(C(=O)O)=C(SCCN=CN)C[C@H]12 in this test?
inactive

Which outcome was assigned to CC(C)(C)NCC(O)COc1ccc(NC(=O)NC2CCCCC2)cc1 (configuration not stated) in this test?
inactive

---

procedureText: Quantitative highthroughput screen to assess conditional lethalithy of SEM cells grown in RPMI1640 with unreated serum (RPMI+s) (AID 1963883); further: nearly all actives have a fitted effect of over 35% in size
testParameters: SEM B-ALL cells, CellTiter-Glo viability, 48 h; series mostly up to 45.8 µM
Inconclusive results are not listed. Activity calls are given as the source filed them. The call rests on the fitted dose curve; in most records, active means well fitted cell-killing curve with a large enough effect; inconclusive means small, poorly fitted or top-dose-only effect, or effect the other way; inactive means no such curve, though single readings can be large or run the other way.
API: response.call in active, inactive

Here's what some known entries look like.
compound: CN1CCN(c2ccc(C(=O)Nc3n[nH]c4ccc(Cc5cc(F)cc(F)c5)cc34)c(NC3CCOCC3)c2)CC1
discreteLabel: active
--
compound: CC(C)(Sc1cc(C(C)(C)C)c(O)c(C(C)(C)C)c1)Sc1cc(C(C)(C)C)c(O)c(C(C)(C)C)c1
discreteLabel: inactive
--
compound: CN(c1ncccc1CNc1nc(Nc2ccc3c(c2)CC(=O)N3)ncc1C(F)(F)F)S(C)(=O)=O
discreteLabel: active
--
compound: C[C@]12C=CC(=O)N[C@@H]1CC[C@H]1[C@H]3CC[C@@H](C(=O)Nc4cc(C(F)(F)F)ccc4C(F)(F)F)[C@@]3(C)CC[C@@H]12
discreteLabel: inactive
--
compound: O=C(NCCCCN1CCOCC1)c1cc2ccccc2o1
discreteLabel: inactive

Which outcome was assigned to Nc1ccccc1NC(=O)c1ccc(CNc2nccc(-c3cccnc3)n2)cc1 in this test?
active

Which outcome was assigned to CCC(=C(CC)c1ccc(O)cc1)c1ccc(O)cc1 in this test?
inactive

Which outcome was assigned to C[C@@H](Oc1cc(-c2cnn(C3CCNCC3)c2)cnc1N)c1c(Cl)ccc(F)c1Cl in this test?
active
